Provide the reported MIC of each item.
- System: Candida auris
- Protocol details: MIC determination against clinical isolates of Candida auris (CLSI M27, 4th edition)
- Format: cell-based
- Assay conditions: Candidozyma auris, strain IV.6 (No 20), clade IV/Colombia; read-out: MIC values
Please give a number only; it is taken to be in µg/mL.

Readout MIC for C[C@@H]1[C@H](O)[C@@H](C)/C=C/C=C/C=C/C=C/C=C/C=C/C=C/[C@H](O[C@@H]2O[C@H](C)[C@@H](O)[C@H](N)[C@@H]2O)C[C@@H]2O[C@](O)(C[C@@H](O)C[C@@H](O)[C@H](O)CC[C@@H](O)C[C@@H](O)CC(=O)O[C@H]1C)C[C@H](O)[C@H]2C(=O)O , test system Candida auris, was 1

Readout MIC for C[C@@H](c1ncncc1F)[C@](O)(Cn1cncn1)c1ccc(F)cc1F , test system Candida auris, was 0.5

Readout MIC for OC(Cn1cncn1)(Cn1cncn1)c1ccc(F)cc1F , test system Candida auris, was 128

Readout MIC for CNc1ccc(C(=O)CC(O)CC[C@H](C)C2OC(=O)C[C@H](O)CC(=O)C[C@H](O)C[C@H](O)C[C@H](O)C[C@H](O)C[C@]3(O)C[C@H](O)[C@@H](C(=O)NCCN(C)C)C(C[C@@H](OC4OC(C)C(O)C(NC(=O)CN(C)C)C4O)/C=C/C=C/C=C/C=C\C=C/C=C/C=C/[C@@H]2C)O3)cc1 (stereo partly shown) [Amcipatricin diascorbate] , test system Candida auris, was 2

---

Provide the reported MIC of each item.
- Test system: Candida auris
- Protocol details: MIC determination against clinical isolates of Candida auris (CLSI M27, 4th edition)
- Type: cell-based
- Assay conditions: Candidozyma auris, strain IV.3 (No 17), clade IV/Colombia; read-out: MIC values
Please give a number only; it is taken to be in µg/mL.

Record OC(Cn1cncn1)(Cn1cncn1)c1ccc(F)cc1F [Fluconazole] , field MIC: 128

Record C[C@@H](c1ncncc1F)[C@](O)(Cn1cncn1)c1ccc(F)cc1F [Voriconazole] , field MIC: 1

Record CNc1ccc(C(=O)CC(O)CC[C@H](C)C2OC(=O)C[C@H](O)CC(=O)C[C@H](O)C[C@H](O)C[C@H](O)C[C@H](O)C[C@]3(O)C[C@H](O)[C@@H](C(=O)NCCN(C)C)C(C[C@@H](OC4OC(C)C(O)C(NC(=O)CN(C)C)C4O)/C=C/C=C/C=C/C=C\C=C/C=C/C=C/[C@@H]2C)O3)cc1 (stereo partly shown) [Amcipatricin diascorbate] , field MIC: 2

Record C[C@@H]1[C@H](O)[C@@H](C)/C=C/C=C/C=C/C=C/C=C/C=C/C=C/[C@H](O[C@@H]2O[C@H](C)[C@@H](O)[C@H](N)[C@@H]2O)C[C@@H]2O[C@](O)(C[C@@H](O)C[C@@H](O)[C@H](O)CC[C@@H](O)C[C@@H](O)CC(=O)O[C@H]1C)C[C@H](O)[C@H]2C(=O)O [Amphotericin B] , field MIC: 2

---

- Test system: Candida auris
- Protocol details: MIC determination against clinical isolates of Candida auris (CLSI M27, 4th edition)
- Format: cell-based
- Assay conditions: Candidozyma auris, strain IV.5 (No 19), clade IV/Colombia; read-out: MIC values
Readout name: MIC
// unit must come after the numeric part

Record OC(Cn1cncn1)(Cn1cncn1)c1ccc(F)cc1F , field MIC: 128 µg/mL

Record CNc1ccc(C(=O)CC(O)CC[C@H](C)C2OC(=O)C[C@H](O)CC(=O)C[C@H](O)C[C@H](O)C[C@H](O)C[C@H](O)C[C@]3(O)C[C@H](O)[C@@H](C(=O)NCCN(C)C)C(C[C@@H](OC4OC(C)C(O)C(NC(=O)CN(C)C)C4O)/C=C/C=C/C=C/C=C\C=C/C=C/C=C/[C@@H]2C)O3)cc1 (stereo partly shown) [Amcipatricin diascorbate] , field MIC: 2 µg/mL

Record C[C@@H]1[C@H](O)[C@@H](C)/C=C/C=C/C=C/C=C/C=C/C=C/C=C/[C@H](O[C@@H]2O[C@H](C)[C@@H](O)[C@H](N)[C@@H]2O)C[C@@H]2O[C@](O)(C[C@@H](O)C[C@@H](O)[C@H](O)CC[C@@H](O)C[C@@H](O)CC(=O)O[C@H]1C)C[C@H](O)[C@H]2C(=O)O , field MIC: 1 µg/mL

Record C[C@@H](c1ncncc1F)[C@](O)(Cn1cncn1)c1ccc(F)cc1F , field MIC: 0.5 µg/mL

---

- Tested on: Candida auris
- Protocol details: MIC determination against clinical isolates of Candida auris (CLSI M27, 4th edition)
- Format: cell-based
- Assay conditions: Candidozyma auris, strain IV.1 (No 15), clade IV/Colombia; read-out: MIC values
- Text: MIC: Minimum Inhibitory Concentration (MIC) is defined as the lowest concentration of an antimicrobial ingredient that is bacteriostatic. Testing has been performed in triplicates for each isolate.
Provide the reported MIC of each item.
Please give a number only; it is taken to be in µg/mL.

Record CNc1ccc(C(=O)CC(O)CC[C@H](C)C2OC(=O)C[C@H](O)CC(=O)C[C@H](O)C[C@H](O)C[C@H](O)C[C@H](O)C[C@]3(O)C[C@H](O)[C@@H](C(=O)NCCN(C)C)C(C[C@@H](OC4OC(C)C(O)C(NC(=O)CN(C)C)C4O)/C=C/C=C/C=C/C=C\C=C/C=C/C=C/[C@@H]2C)O3)cc1 (stereo partly shown) [Amcipatricin diascorbate] , field MIC: 2

Record C[C@@H](c1ncncc1F)[C@](O)(Cn1cncn1)c1ccc(F)cc1F , field MIC: 0.0625

Record OC(Cn1cncn1)(Cn1cncn1)c1ccc(F)cc1F , field MIC: 4

Record C[C@@H]1[C@H](O)[C@@H](C)/C=C/C=C/C=C/C=C/C=C/C=C/C=C/[C@H](O[C@@H]2O[C@H](C)[C@@H](O)[C@H](N)[C@@H]2O)C[C@@H]2O[C@](O)(C[C@@H](O)C[C@@H](O)[C@H](O)CC[C@@H](O)C[C@@H](O)CC(=O)O[C@H]1C)C[C@H](O)[C@H]2C(=O)O , field MIC: 2

---

Provide the reported MIC of each item.
- Tested on: Candida auris
- Protocol details: MIC determination against clinical isolates of Candida auris (CLSI M27, 4th edition)
- Assay type: cell-based
- Assay conditions: Candidozyma auris, strain IV.11 (No 8), clade IV/Israel; read-out: MIC values
- Text: MIC: Minimum Inhibitory Concentration (MIC) is defined as the lowest concentration of an antimicrobial ingredient that is bacteriostatic. Testing has been performed in triplicates for each isolate.
Please give a number only; it is taken to be in µg/mL.

Readout MIC for CNc1ccc(C(=O)CC(O)CC[C@H](C)C2OC(=O)C[C@H](O)CC(=O)C[C@H](O)C[C@H](O)C[C@H](O)C[C@H](O)C[C@]3(O)C[C@H](O)[C@@H](C(=O)NCCN(C)C)C(C[C@@H](OC4OC(C)C(O)C(NC(=O)CN(C)C)C4O)/C=C/C=C/C=C/C=C\C=C/C=C/C=C/[C@@H]2C)O3)cc1 (stereo partly drawn) [Amcipatricin diascorbate] , test system Candida auris, was 1

Readout MIC for C[C@@H](c1ncncc1F)[C@](O)(Cn1cncn1)c1ccc(F)cc1F , test system Candida auris, was 0.5

Readout MIC for OC(Cn1cncn1)(Cn1cncn1)c1ccc(F)cc1F , test system Candida auris, was 32
